# Procedure Text: NCI Yeast Anticancer Drug Screen. Data for the mec2-1 strain (AID 157)
# Assay Context: S. cerevisiae mec2-1 strain, at 50.0 µM, active compounds read high
The panel holds about 79,000 compounds, 15% with a hit somewhere; the sample as a whole holds those more often.
Listed molecules paired with reported growth inhibition
// units = %; emit number, no label

Reference set, count: 6
{"Molecule": "Nc1ccc(Cl)c2ccccc12", "Reported Property": "growth inhibition", "Measured": 76.8}
{"Molecule": "CCOC(=O)c1ccc(N=Cc2cc(Cl)cc(Cl)c2O)cc1", "Reported Property": "growth inhibition", "Measured": 88.5}
{"Molecule": "COc1ccc(/C=C2\\CN(C)C/C(=C\\c3ccc(OC)c(OC)c3OC)C2=O)c(OC)c1OC", "Reported Property": "growth inhibition", "Measured": 93.5}
{"Molecule": "CN(C)CC(=O)OCC[N+](C)(C)C", "Reported Property": "growth inhibition", "Measured": -15.1}
{"Molecule": "O=C1c2ccc(O)c(O)c2C(=O)c2c(O)ccc(O)c21", "Reported Property": "growth inhibition", "Measured": 55.5}
{"Molecule": "CCCNCCCC(C)Nc1cc(OC)cc2c(C)ccnc12 (stereo unspecified)", "Reported Property": "growth inhibition", "Measured": 55.2}

QUERY: Reported growth inhibition, molecule "CC1=C(C(=O)Nc2cccc(C(F)(F)F)c2)C(c2ccccc2F)C(C(=O)Nc2cccc(C(F)(F)F)c2)=C(C)N1" : ____
RESULT: 78.9

QUERY: How about "CCOC(=O)Cc1csc(/C=C/c2ccc(OC)c(OC)c2)n1" ?
RESULT: 11.8

QUERY: How about "O=c1[nH]c(=O)c2cc([N+](=O)[O-])cc([N+](=O)[O-])c2[nH]1" ?
RESULT: 73.7

QUERY: How about "O=c1oc2ccccc2c(O)c1/C=N/C(=S)Nc1ccccc1" ?
RESULT: 34.5

QUERY: How about "Cc1cc(Cl)ccc1C(=O)c1ccc2ccccc2c1C(=O)O" ?
RESULT: 82.5

* * *

# Procedure Text: NCI Yeast Anticancer Drug Screen. Data for the sgs1 mgt1 strain (AID 161);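 also: 0% = growth of cultures given vehicle only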
# Assay Context: S. cerevisiae sgs1 mgt1 strain, at 5.0 µM (retest, dose inferred, filed as 0.5), active compounds read high
This is part of a sample that, as a whole, favours compounds with a hit. Of some 79,000 tested, about 15% had one in any assay.
Reported Property: growth inhibition (%)
// units = %; emit number, no label

QUERY: Reported growth inhibition, compound "O=C(O)COc1ccccc1C(=O)O" : ____
RESULT: 1

QUERY: How about "CCCNCC/C=C/[Si](C)(C)C" ?
RESULT: -3

QUERY: How about "COc1ccc(Cc2c3ccccc3cc[n+]2C)cc1Oc1ccc(Cc2c3ccccc3cc[n+]2C)cc1" ?
RESULT: 2

QUERY: How about "O=C1C=CC(=NN=C(c2ccccc2)c2ccccc2)C=C1" ?
RESULT: -21

QUERY: How about "Nc1cc(Cl)ccc1C(=O)O" ?
RESULT: 14

* * *

Listed molecules paired with reported growth inhibition
# Procedure Text: NCI Yeast Anticancer Drug Screen. Data for the mlh1 rad18 strain (AID 175)
# Assay Context: S. cerevisiae mlh1 rad18 strain growth inhibition; at 50.0 µM (retest, dose inferred, filed as 5.0); active compounds read high
# Procedure: Growth inhibition of yeast strains with defined genetic alterations is measured as a screen for potential anti-cancer activity. Selected strains with alterations in DNA damage repair or cell cycle control were exposed to compounds and growth inhibition was measured relative to vehicle treated controls. The strain used in this assay is mlh1 rad18
This is part of a sample that, as a whole, favours compounds with a hit. Of some 79,000 tested, about 15% had one in any assay.
// units = %; emit number, no label

QUERY: Reported growth inhibition, molecule "CCOP(=O)(OCC)C(=C1C=C(C(C)(C)C)C(=O)C(C(C)(C)C)=C1)P(=O)(OCC)OCC" : ____
RESULT: 98

* * *

# Procedure Text: NCI Yeast Anticancer Drug Screen. Data for the mec2-1 strain (AID 157)
# Assay Context: S. cerevisiae mec2-1 strain, at 5.0 µM (retest, dose inferred, filed as 0.5)
This is part of a sample that, as a whole, favours compounds with a hit. Of some 79,000 tested, about 15% had one in any assay. Activity calls are given as the source filed them. No stated cut-off is given here; in the data, active means growth inhibition above about 70%; inactive means the rest.
Please answer using one outcome listed in active, inactive

{"Compound": "Cc1ccc(OCC2CO2)c(Br)c1 (stereo unspecified)", "Label Class": "inactive"}
{"Compound": "CCCC#CC(O)(C(=O)OC1CCN(C)CC1)C1CCCCC1 (stereo unspecified)", "Label Class": "inactive"}
{"Compound": "CCOC(=O)C1=C(C)NC2=C(C(=O)N(c3ccccc3)C2c2ccccc2)C1c1ccccc1 (stereo unspecified)", "Label Class": "inactive"}
{"Compound": "CSCCC(NC(=O)C(CCSC)NS(=O)(=O)Cc1ccccc1)C(=O)O (stereo unspecified)", "Label Class": "inactive"}
{"Compound": "CC(C)C1(Cl)CCC2C3(C)CCCC(C)(C(=O)O)C3CC(Cl)C2(Cl)C1Cl (stereo unspecified)", "Label Class": "inactive"}
{"Compound": "O=S(=O)(Nc1ccccc1)c1ccccc1C=C(c1ccccc1)c1ccccc1", "Label Class": "inactive"}
{"Compound": "Cc1cc(C)c(S(=O)(=O)c2c(C)cc(C)cc2C)c(C)c1", "Label Class": "inactive"}
{"Compound": "O=C(O)CCCCCCCCC(=O)O.[Ag]", "Label Class": "active"}
{"Compound": "Cc1nn(C(=O)c2ccncc2)c(C)c1N=Nc1ccccc1[N+](=O)[O-]", "Label Class": "inactive"}
{"Compound": "c1ccc2cc3nc4ccccc4nc3cc2c1", "Label Class": "inactive"}

Consider now this further compound.
QUERY: Identify the outcome logged in this assay for the compound shown: "COc1ccc(C)cc1NC(=O)ON=C1CCCCC1"
RESULT: inactive

* * *

# Procedure Text: NCI Yeast Anticancer Drug Screen. Data for the mlh1 rad18 strain (AID 175)
# Assay Context: S. cerevisiae mlh1 rad18 strain growth inhibition; at 50.0 µM; active compounds read high
This is part of a sample that, as a whole, favours compounds with a hit. Of some 79,000 tested, about 15% had one in any assay.
Listed compounds paired with reported growth inhibition
// units = %; emit number, no label

{"Compound": "COc1ccc(/C=C2\\CCC/C(=C\\c3ccc(OC)cc3)C2=O)cc1", "growth inhibition / %": 9.55}

QUERY: Reported growth inhibition, compound "Oc1cc(O)cc(O)c1" : ____
RESULT: 23.3

QUERY: How about OC(c1ccccc1)(C(F)(F)F)C(O)(c1ccccc1)C(F)(F)F (stereo unspecified) ?
RESULT: 95.5

QUERY: How about "C/C(=N\NC(=O)N/N=C(\C)c1ccccn1)c1ccccn1" ?
RESULT: -5.95

QUERY: How about CNC(=O)OCCC(OC(=O)NC)C1CCC2C3CC=C4CC(OC(=O)NC)CCC4(C)C3CCC12C (stereo unspecified) ?
RESULT: 34.5

QUERY: How about "CC(C)OP(=O)(CCCCCCCCC/C=C/c1ccc2c(c1)OCCOCCOCCOCCO2)OC(C)C" ?
RESULT: 98.1

QUERY: How about "O=C(/C=C/c1ccccc1)CCN1CCN(CCC(=O)/C=C/c2ccccc2)CC1" ?
RESULT: 99.5

QUERY: How about "N/C(=N\N=C\c1cc(I)cc(I)c1O)NO" ?
RESULT: 97.9

QUERY: How about "CNC(=O)OCC1=CC(=O)C(OC)=C(OC)C1=O" ?
RESULT: 8.95

QUERY: How about "O=[N+]([O-])c1ccc(SCc2ccccc2)c2nonc12" ?
RESULT: 86

QUERY: How about "CNC(=S)/N=c1/sc([N+](=O)[O-])c(C)n1C" ?
RESULT: 54.8

* * *

# Procedure Text: NCI Yeast Anticancer Drug Screen. Data for the rad50 strain (AID 155);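 also: 0% = growth of vehicle-only cultures of the same strain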
# Assay Context: S. cerevisiae rad50 strain growth inhibition; at 50.0 µM (retest, dose inferred, filed as 5.0)
About 79,000 compounds went through this panel and 15% of them were active in at least one assay; those are over-represented in the sample as a whole. Activity calls are given as the source filed them. Rule as the data show it: active = growth inhibition above about 70%; inactive = the rest.
Please answer using one outcome listed in active, inactive

Before answering, review these 5 worked examples.
{"Compound": "Oc1c(N2CCOCC2)cc(-c2cc(N3CCOCC3)c(O)c3ccccc23)c2ccccc12", "Label Class": "inactive"}
{"Compound": "CCN1CCC(O)(/C=C/c2ccccc2C)C(C(=O)/C=C/c2ccccc2C)C1 (stereo not given)", "Label Class": "active"}
{"Compound": "CC1(C)OC2OC(/C=C/[N+](=O)[O-])C3OC(C)(C)OC3C2O1 (stereo not given)", "Label Class": "active"}
{"Compound": "CCCCCCCCCCCCSC1=C(N)C(=O)c2ccccc2C1=O", "Label Class": "inactive"}
{"Compound": "Cc1cc(SCc2ccccc2)cc(C)[o+]1", "Label Class": "active"}

QUERY: Identify the outcome logged in this assay for the compound shown: COC(=O)c1ccc2c(c1)C(O)NC(=O)O2 (stereo not given)
RESULT: active

QUERY: How about CC(=O)CC1CCC(=O)/C=C/C(=O)OC(CC(C)=O)CCC(=O)/C=C/C(=O)O1 (stereo not given) ?
RESULT: inactive

QUERY: How about "O=C1C=CC(=O)C(c2ccccc2)=C1" ?
RESULT: active

QUERY: How about "C1=C(c2ccccc2)CCc2c1ccc1ccccc21" ?
RESULT: inactive

QUERY: How about "CC1=C(CO)C(=O)O[C@@H]([C@@H](C)[C@H]2CC[C@H]3[C@@H]4C[C@@H](O)C5=CC=CC(=O)[C@]5(C)[C@H]4CC[C@]23C)C1" ?
RESULT: inactive

Data provenance is PubChem BioAssay (NCI).
